Target: CST (CTC1-STN1-TEN1) (human, UniProt Q2NKJ3;Q9H668;Q86WV5 1-1217;1-368;1-123)
Sequence (Q2NKJ3 whole entry, chain 1 of 3): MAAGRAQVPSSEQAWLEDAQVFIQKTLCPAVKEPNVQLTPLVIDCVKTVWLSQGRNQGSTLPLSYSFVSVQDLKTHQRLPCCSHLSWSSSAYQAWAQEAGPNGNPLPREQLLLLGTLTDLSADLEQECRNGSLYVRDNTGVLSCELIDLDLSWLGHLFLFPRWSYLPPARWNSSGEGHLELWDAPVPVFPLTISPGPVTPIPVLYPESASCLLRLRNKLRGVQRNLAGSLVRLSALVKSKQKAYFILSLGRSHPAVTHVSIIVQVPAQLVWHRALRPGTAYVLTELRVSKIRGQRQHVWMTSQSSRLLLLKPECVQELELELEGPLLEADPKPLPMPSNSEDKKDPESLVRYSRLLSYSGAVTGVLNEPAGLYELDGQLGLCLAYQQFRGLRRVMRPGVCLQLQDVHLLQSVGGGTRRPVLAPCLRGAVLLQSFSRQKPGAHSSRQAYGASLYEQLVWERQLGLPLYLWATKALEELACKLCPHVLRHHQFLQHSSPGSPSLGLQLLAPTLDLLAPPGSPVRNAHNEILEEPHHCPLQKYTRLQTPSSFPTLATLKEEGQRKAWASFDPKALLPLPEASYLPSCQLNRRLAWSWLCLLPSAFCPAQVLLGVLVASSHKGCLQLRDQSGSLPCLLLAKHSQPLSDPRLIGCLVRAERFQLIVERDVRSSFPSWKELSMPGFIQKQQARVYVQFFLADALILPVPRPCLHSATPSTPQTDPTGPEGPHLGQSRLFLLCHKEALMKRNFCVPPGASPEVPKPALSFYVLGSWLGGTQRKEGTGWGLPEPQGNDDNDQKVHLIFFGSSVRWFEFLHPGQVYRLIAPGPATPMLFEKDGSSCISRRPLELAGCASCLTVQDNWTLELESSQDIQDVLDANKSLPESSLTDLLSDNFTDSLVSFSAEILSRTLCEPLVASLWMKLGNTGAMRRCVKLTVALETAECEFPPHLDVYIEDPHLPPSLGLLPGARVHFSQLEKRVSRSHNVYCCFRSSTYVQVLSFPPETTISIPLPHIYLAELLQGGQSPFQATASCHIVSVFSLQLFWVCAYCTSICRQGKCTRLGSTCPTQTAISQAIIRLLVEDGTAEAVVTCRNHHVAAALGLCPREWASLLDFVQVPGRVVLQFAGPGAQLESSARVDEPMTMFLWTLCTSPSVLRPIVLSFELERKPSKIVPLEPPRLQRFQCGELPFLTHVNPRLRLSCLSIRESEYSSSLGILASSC
Sequence (Q9H668 whole entry, chain 2 of 3): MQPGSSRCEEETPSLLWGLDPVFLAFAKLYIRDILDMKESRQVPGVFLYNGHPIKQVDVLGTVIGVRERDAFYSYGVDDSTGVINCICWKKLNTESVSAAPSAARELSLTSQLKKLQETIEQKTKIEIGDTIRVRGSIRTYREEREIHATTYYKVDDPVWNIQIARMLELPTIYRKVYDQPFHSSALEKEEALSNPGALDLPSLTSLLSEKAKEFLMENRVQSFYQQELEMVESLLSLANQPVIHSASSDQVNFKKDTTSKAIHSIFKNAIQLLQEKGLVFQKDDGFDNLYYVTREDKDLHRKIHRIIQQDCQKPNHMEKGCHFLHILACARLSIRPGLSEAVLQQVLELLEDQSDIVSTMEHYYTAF
Sequence (Q86WV5 whole entry, chain 3 of 3): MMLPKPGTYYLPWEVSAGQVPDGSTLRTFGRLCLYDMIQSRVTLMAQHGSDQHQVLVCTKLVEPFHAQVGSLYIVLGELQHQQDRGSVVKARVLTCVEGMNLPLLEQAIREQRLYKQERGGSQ
Test: fluorescence anisotropy; 200 mM KCl; FA: 200 mM NaCl, KCl or LiCl, 20 mM HEPES pH 7.4, 1 mM DTT, 22-25 C, 375 or 750 pM oligo, Kd,app +/- SEM; EMSA: 20 mM HEPES pH 7.4, 200 mM KCl, 1 nM 32P oligo
Details: protein: recombinant; tags: 2xFLAG N-term on CTC1; 6xHis N-term on STN1 and TEN1; copies: 1;1;1; label: 5' fluorescein; intramolecular G4 in middle; linear in LiCl
metric_name: Kd (nM)
Give just the number in nM; leave the unit off.

Provide one value: measured Kd of AGTGTGAGTTAGGGTTAGGGTTAGGGTTAGGGTGAGTGTG (structured_DNA) [Tel40 Middle G4] 4.4
